- Target: Aldo-keto reductase family 1 member B1 (Homo sapiens)
- Experimental Details: Inhibitory activity against human placental aldose reductase
Measured Parameter: IC50 (nM)

See these solved cases before continuing.
                                   molecule                                    target  unit_label  value_reported
0  C1CCC(NC2CCCCC2)CC1.O=C(O)C[C@]1(O)C[C@@H](C(=O)c2ccccc2)Oc2ccc(F)cc21  Aldo-keto reductase family 1 member B1 (Homo sapiens)          nM            1390
1  C[C@@H]1C[C@@](O)(CC(=O)O)c2c(Cl)ccc(Cl)c2O1  Aldo-keto reductase family 1 member B1 (Homo sapiens)          nM           13100
2  C[C@@H]1C[C@@](O)(CC(=O)O)c2cc(F)c(Br)cc2O1  Aldo-keto reductase family 1 member B1 (Homo sapiens)          nM              90
3  CC(=O)c1ccc2c(c1)[C@](O)(CC(=O)O)C[C@@H](C)O2  Aldo-keto reductase family 1 member B1 (Homo sapiens)          nM             650
4  C[C@@H]1C[C@@](O)(CC(=O)O)c2cc(F)c(Cl)cc2O1 (stereo in doubt; 23)  Aldo-keto reductase family 1 member B1 (Homo sapiens)          nM              60

1 = C[C@@H]1C[C@@](O)(CC(=O)O)c2c(Cl)cccc2O1
2 = C[C@@H]1C[C@@](O)(CC(=O)O)c2cc(Cl)c(OCc3ccccc3)cc2O1
3 = C[C@@H]1C[C@@](O)(CC(=O)O)c2cc(Cl)c(Cl)cc2O1 (stereo in doubt; 18)
4 = C[C@@H]1C[C@@](O)(CC(=O)O)c2cc(Cl)c(F)cc2O1
Please list these molecules in decreasing order of IC50. Use the labels to give the ranking in the order requested.
1, 4, 3, 2
(1: 43500 nM, 4: 390 nM, 3: 180 nM, 2: 60 nM)

----------
- Test system: Rattus norvegicus
- Experimental Details: In vivo inhibition of sorbitol accumulation in sciatic nerves from streptozotocin-diabetic rats dosed at 3*25 mg/kg over 27h.
- Type: functional, Sciatic nerve
Some compounds, each annotated with its measured Inhibition.
# unit: % | format: bare number

In [3]: df
Out[3]:
                                   compound             target  measured_parameter  unit_label  value_reported
0  C[C@@H]1C[C@@](O)(CC(=O)O)c2cc(F)c(Cl)cc2O1 (stereo in doubt; 23)  Rattus norvegicus          Inhibition           %              72
1  C[C@@H]1C[C@@](O)(CC(=O)O)c2cc(F)c(Br)cc2O1  Rattus norvegicus          Inhibition           %              73
2  C[C@@H]1C[C@@](O)(CC(=O)O)c2cc(F)c(F)cc2O1  Rattus norvegicus          Inhibition           %              67
3  C[C@@H]1C[C@@](O)(CC(=O)O)c2cc(Cl)c(Cl)cc2O1 (stereo in doubt; 18)  Rattus norvegicus          Inhibition           %              53
4  C[C@@H]1C[C@@](O)(CC(=O)O)c2cc(Cl)c(F)cc2O1  Rattus norvegicus          Inhibition           %              29
5   C[C@@H]1C[C@@](O)(CC(=O)O)c2cc(F)ccc2O1  Rattus norvegicus          Inhibition           %              22

With those in mind, consider the next compound.
Retrieve Inhibition measured for C[C@@H]1C[C@@](O)(CC(=O)O)c2cc(Cl)c(Br)cc2O1 and print it.
46

----------
- Target: Aldo-keto reductase family 1 member B1 (Homo sapiens)
- Experimental Details: Inhibitory activity against human placental aldose reductase
pIC50: −log10 of the molar value.
Measured Parameter: pIC50

See these solved cases before continuing.
                         structure_notation                                    target  measured_parameter  value_reported
0  Cc1cc2c(cc1[N+](=O)[O-])[C@](O)(CC(=O)O)C[C@@H](C)O2  Aldo-keto reductase family 1 member B1 (Homo sapiens)               pIC50            7.05
1  CC1(C)C[C@@](O)(CC(=O)O)c2cc(Cl)c(Cl)cc2O1  Aldo-keto reductase family 1 member B1 (Homo sapiens)               pIC50            5.73
2  C[C@@H]1C[C@@](O)(CC(=O)O)c2ccc(C(=O)O)cc2O1  Aldo-keto reductase family 1 member B1 (Homo sapiens)               pIC50            7.15
3  C[C@@H]1C[C@@](O)(CC(=O)O)c2cc(S(C)(=O)=O)ccc2O1  Aldo-keto reductase family 1 member B1 (Homo sapiens)               pIC50            5.09
4  C[C@@H]1C[C@@](O)(CC(=O)O)c2cc(Cl)ccc2O1  Aldo-keto reductase family 1 member B1 (Homo sapiens)               pIC50            6.09

P = CC(C)[C@@H]1C[C@@](O)(CC(=O)O)c2cc(F)ccc2O1
Q = C[C@H]1Oc2ccc(F)cc2[C@](O)(CC(=O)O)[C@H]1C
R = C[C@@H]1C[C@@](O)(CC(=O)O)c2ccc(F)cc2O1
S = C[C@@H]1C[C@@](O)(CC(=O)O)c2cc(Cl)c(Br)cc2O1
T = Cc1cc2c(cc1Cl)[C@](O)(CC(=O)O)C[C@@H](C)O2
Please list these compounds in decreasing order of pIC50. Use the labels to give the ranking in the order requested.
S, T, P, Q, R
(S: 7.15, T: 6.62, P: 6.24, Q: 6.04, R: 5.27)

----------
- Target: UniProt:P15121
- Experimental Details: ARI(aldose reductase inhibitor) enantiospecificity against human placental aldose reductase.
Measured Parameter: pIC50
Convention used: pIC50 is expressed as -log10 of the molar concentration.

Provide pIC50, recorded with UniProt:P15121, of C[C@@H]1C[C@@](O)(CC(=O)O)c2cc(Cl)c(Cl)cc2O1 (stereo in doubt; 18)
6.81

----------
- Test system: Rattus norvegicus
- Experimental Details: Nerve concentration at 3h after the last dose of 25 mg/kg for 5 days.
- Assay type: functional
Measured Parameter: Tissue levels (µg/mL)
# unit: µg/mL | format: bare number

See these solved cases before continuing.
>>> df
                                   compound             target  value_reported
0  C[C@@H]1C[C@@](O)(CC(=O)O)c2cc(Cl)c(Br)cc2O1  Rattus norvegicus            3.11
1  C[C@@H]1C[C@@](O)(CC(=O)O)c2cc(F)c(Cl)cc2O1 (stereo in doubt; 23)  Rattus norvegicus            1.85
2  C[C@@H]1C[C@@](O)(CC(=O)O)c2cc(Cl)c(F)cc2O1  Rattus norvegicus            2.35

Retrieve Tissue levels measured for C[C@@H]1C[C@@](O)(CC(=O)O)c2cc(F)c(Br)cc2O1 and print it.
1.31

Retrieve Tissue levels measured for C[C@@H]1C[C@@](O)(CC(=O)O)c2cc(Cl)c(Cl)cc2O1 (stereo in doubt; 18) and print it.
6.01

----------
- Target: Aldo-keto reductase family 1 member B1 (Homo sapiens)
- Experimental Details: Inhibitory activity against human placental aldose reductase
Measured Parameter: IC50 (nM)

See these solved cases before continuing.
>>> print(df.to_string())
                                   compound  unit_label  value_reported
0      C[C@@H]1C[C@@](O)(CC(=O)O)c2ccccc2O1          nM           14800
1  C[C@@H]1C[C@@](O)(CC(=O)O)c2ccc(Cl)cc2O1          nM            3320
2            O=C(O)C[C@]1(O)CCOc2ccc(F)cc21          nM             600
3  C[C@@H]1C[C@@](O)(CC(=O)O)c2cc(Cl)c(Cl)cc2O1 (stereo in doubt; 58)          nM            50.9
4  C[C@@H]1C[C@@](O)(CC(=O)O)c2cc(Cl)cc(Cl)c2O1          nM            1000
5  C[C@@H]1C[C@@](O)(CC(=O)O)c2cc(C#N)c(F)cc2O1          nM             130
6  C[C@@H]1C[C@@](O)(CC(=O)O)c2c(ccc(F)c2Br)O1          nM            4500
7  C[C@@H]1C[C@@](O)(CC(=O)O)c2cc([N+](=O)[O-])c(Cl)cc2O1          nM             110
8  C[C@@H]1C[C@@](O)(CC(=O)O)c2c(ccc(Cl)c2Cl)O1          nM            1630
9  C[C@@H]1C[C@@](O)(CC(=O)O)c2ccc(Cl)c(Cl)c2O1          nM             780

a = C[C@@H]1C[C@@](O)(CC(=O)O)c2c(ccc(Cl)c2[N+](=O)[O-])O1
b = CC1(C)C[C@@](O)(CC(=O)O)c2cc(F)ccc2O1
c = C[C@@H]1C[C@@](O)(CC(=O)O)c2c(Cl)cc(Cl)cc2O1
d = C[C@@H]1C[C@@](O)(CC(=O)O)c2cc(Br)ccc2O1
# rank by IC50, ascending (min first) Use the labels to give the ranking in the order requested.
d, b, c, a
(d: 1670 nM, b: 3460 nM, c: 29400 nM, a: 95500 nM)
